Molecular target: tyrosyl-DNA phosphodiesterase 2 (TDP2) (Homo sapiens)
Construct: made in house; host or cells: E. coli
Sequence (O95551 whole entry): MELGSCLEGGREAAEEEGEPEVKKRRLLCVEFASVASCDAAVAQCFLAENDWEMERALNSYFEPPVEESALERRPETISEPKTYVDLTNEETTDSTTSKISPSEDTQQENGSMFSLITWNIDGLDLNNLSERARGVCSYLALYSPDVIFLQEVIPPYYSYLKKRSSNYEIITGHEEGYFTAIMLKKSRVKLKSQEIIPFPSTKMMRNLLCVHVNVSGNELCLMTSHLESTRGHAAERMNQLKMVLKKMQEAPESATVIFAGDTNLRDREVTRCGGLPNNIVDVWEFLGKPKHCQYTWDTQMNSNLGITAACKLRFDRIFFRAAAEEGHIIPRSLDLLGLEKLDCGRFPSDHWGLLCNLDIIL
Assay: TDP2 activity, removal of 5′-tyrosine from oligonucleotide substrate, denaturing PAGE
Type: biochemical
Details: inhibitor 500 μM, TDP2 200 nM, substrate 100 nM, 10 min, 37 °C; mean ± SD; read-out: TDP2 % of residual activity (500 μM)
Quantity name: remaining activity at 500 µM

Solved cases (2 shown):
Mol: CN1CCN(c2ccc3nc(-c4ccc5nc(CNC(=O)CCN6CCN(CCC(=O)NCc7nc8ccc(-c9nc%10ccc(N%11CCN(C)CC%11)cc%10[nH]9)cc8[nH]7)CC6)[nH]c5c4)[nH]c3c2)CC1
remaining activity at 500 µM: 44%
--
Mol: CN1CCN(c2ccc3nc(-c4ccc5nc(-c6ccc7nc(CNC(=O)CCN8CCN(CCC(=O)NCc9nc%10ccc(-c%11nc%12ccc(-c%13nc%14ccc(N%15CCN(C)CC%15)cc%14[nH]%13)cc%12[nH]%11)cc%10[nH]9)CC8)[nH]c7c6)[nH]c5c4)[nH]c3c2)CC1
remaining activity at 500 µM: ~100%

So what's the measured remaining activity at 500 µM for this one? CCCn1cc(NC(C)=O)cc1-c1nc2ccc(-c3nc4ccc(N5CCN(C)CC5)cc4[nH]3)cc2[nH]1
~100%

###

Target: poly(ADP-ribose) polymerase 1 (PARP1) (Homo sapiens)
Construct: made in house; host or cells: insect cells (baculovirus expression system)
Sequence (P09874 whole entry): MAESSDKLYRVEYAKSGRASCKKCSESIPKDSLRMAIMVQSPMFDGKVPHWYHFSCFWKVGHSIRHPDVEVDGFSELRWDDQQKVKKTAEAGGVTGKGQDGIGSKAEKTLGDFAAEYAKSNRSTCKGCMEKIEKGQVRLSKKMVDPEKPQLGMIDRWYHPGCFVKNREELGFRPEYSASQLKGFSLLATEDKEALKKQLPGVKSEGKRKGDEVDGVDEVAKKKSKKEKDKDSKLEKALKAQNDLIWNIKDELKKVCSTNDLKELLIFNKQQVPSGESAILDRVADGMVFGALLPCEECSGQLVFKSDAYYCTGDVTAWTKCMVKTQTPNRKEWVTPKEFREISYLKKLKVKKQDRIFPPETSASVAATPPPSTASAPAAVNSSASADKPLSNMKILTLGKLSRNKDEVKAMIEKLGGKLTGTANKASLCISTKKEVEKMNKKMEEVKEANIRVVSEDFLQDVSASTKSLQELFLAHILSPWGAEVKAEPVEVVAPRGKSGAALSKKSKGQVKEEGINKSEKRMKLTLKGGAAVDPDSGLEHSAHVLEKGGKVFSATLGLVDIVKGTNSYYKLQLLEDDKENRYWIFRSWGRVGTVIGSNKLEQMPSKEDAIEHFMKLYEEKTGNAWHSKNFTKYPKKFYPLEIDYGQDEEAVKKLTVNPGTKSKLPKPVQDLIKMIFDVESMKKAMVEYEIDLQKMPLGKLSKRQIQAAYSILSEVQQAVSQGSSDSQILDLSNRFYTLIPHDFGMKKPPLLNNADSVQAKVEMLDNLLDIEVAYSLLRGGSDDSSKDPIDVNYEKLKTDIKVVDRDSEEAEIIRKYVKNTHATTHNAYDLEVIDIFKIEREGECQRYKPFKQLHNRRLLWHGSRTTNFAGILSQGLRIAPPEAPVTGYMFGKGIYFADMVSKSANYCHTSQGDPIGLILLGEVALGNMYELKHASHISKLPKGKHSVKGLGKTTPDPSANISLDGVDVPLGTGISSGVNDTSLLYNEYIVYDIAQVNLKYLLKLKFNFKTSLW
Test: PARP1 auto-poly(ADP-ribosyl)ation with [32P]-NAD+
Format: biochemical
Conditions: compound 500 μM, PARP1 200 nM, 0.3 mM [32P]-NAD+, 2 min, 37 °C; mean ± SD; read-out: PARP1 % of residual activity (500 μM)
Quantity name: remaining activity at 500 µM

Solved cases (5 shown):
Mol: CCCn1cc(NC(=O)CC(=O)Nc2cc(-c3nc4ccc(-c5nc6ccc(N7CCN(C)CC7)cc6[nH]5)cc4[nH]3)n(CCC)c2)cc1-c1nc2ccc(-c3nc4ccc(N5CCN(C)CC5)cc4[nH]3)cc2[nH]1
remaining activity at 500 µM: ~100%

Mol: CCCn1cc(NC(C)=O)cc1-c1nc2ccc(-c3nc4ccc(N5CCN(C)CC5)cc4[nH]3)cc2[nH]1
remaining activity at 500 µM: ~100%

Mol: CN1CCN(c2ccc3nc(-c4ccc5nc(-c6ccc7nc(CNC(=O)CCCCN8CCN(CCCCC(=O)NCc9nc%10ccc(-c%11nc%12ccc(-c%13nc%14ccc(N%15CCN(C)CC%15)cc%14[nH]%13)cc%12[nH]%11)cc%10[nH]9)CC8)[nH]c7c6)[nH]c5c4)[nH]c3c2)CC1
remaining activity at 500 µM: 48%

Mol: CCCn1cc(NC(=O)CCCCCCCC(=O)Nc2cc(-c3nc4ccc(-c5nc6ccc(N7CCN(C)CC7)cc6[nH]5)cc4[nH]3)n(CCC)c2)cc1-c1nc2ccc(-c3nc4ccc(N5CCN(C)CC5)cc4[nH]3)cc2[nH]1
remaining activity at 500 µM: ~100%

Mol: CCCn1cc(NC(=O)CCCCCC(=O)Nc2cc(-c3nc4ccc(-c5nc6ccc(N7CCN(C)CC7)cc6[nH]5)cc4[nH]3)n(CCC)c2)cc1-c1nc2ccc(-c3nc4ccc(N5CCN(C)CC5)cc4[nH]3)cc2[nH]1
remaining activity at 500 µM: ~100%

So what's the measured remaining activity at 500 µM for this one? CN1CCN(c2ccc3nc(-c4ccc5nc(CNC(=O)CN6CCN(CC(=O)NCc7nc8ccc(-c9nc%10ccc(N%11CCN(C)CC%11)cc%10[nH]9)cc8[nH]7)CC6)[nH]c5c4)[nH]c3c2)CC1
57%

Now this one: CN1CCN(c2ccc3nc(-c4ccc5nc(CN)[nH]c5c4)[nH]c3c2)CC1
~100%

Now this one: CN1CCN(c2ccc3nc(-c4ccc5nc(-c6ccc7nc(CNC(=O)CCCCCCCCCC(=O)NCc8nc9ccc(-c%10nc%11ccc(-c%12nc%13ccc(N%14CCN(C)CC%14)cc%13[nH]%12)cc%11[nH]%10)cc9[nH]8)[nH]c7c6)[nH]c5c4)[nH]c3c2)CC1
~100%

Now this one: CC(=O)NCc1nc2ccc(-c3nc4ccc(N5CCN(C)CC5)cc4[nH]3)cc2[nH]1
~100%

Now this one: CN1CCN(c2ccc3nc(-c4ccc5nc(-c6ccc7nc(CN)[nH]c7c6)[nH]c5c4)[nH]c3c2)CC1
65%
